Assay: Permeability across apical to basolateral side in human Caco2 cells
Conditions: Caco-2
Group membership follows Papp A→B per the scheme bin 1: < 0.6 ×10⁻⁶ cm/s; bin 2: ≥ 0.6 ×10⁻⁶ cm/s and < 8 ×10⁻⁶ cm/s; bin 3: ≥ 8 ×10⁻⁶ cm/s

Quick check: band for Cc1c(C(=O)O)sc2ccc(NC(=O)C(C)(C)NC(=O)c3ccc4c(C5CCCCC5)c(-c5ccccn5)n(C)c4c3)cc12
bin 2

Given Cn1c(-c2ccccn2)c(C2CCCCC2)c2ccc(C(=O)NC(C)(C)C(=O)Nc3ccc4sc(C(=O)O)cc4c3)cc21 , name the class its Papp A→B places it in.
bin 1

# bin lookup: classify Cn1c(-c2ccccn2)c(C2CCCCC2)c2ccc(C(=O)N[C@]3(C(=O)Nc4ccc(/C=C/C(=O)O)cc4)CCNC3)cc21 by its Papp A→B
bin 1

Exercise: read the entry Cn1c(-c2ccccn2)c(C2CCCCC2)c2ccc(C(=O)NC3(C(=O)Nc4ccc(C(=O)O)cc4)CCC3)cc21 and state which class it falls under.
bin 3

Tag the class for Cn1c(-c2ccccn2)c(C2CCCCC2)c2ccc(C(=O)N[C@@]3(C(=O)Nc4ccc(-c5cncnc5)cc4)CCNC3)cc21
bin 1

Exercise: read the entry Cn1c(-c2ccccn2)c(C2CCCCC2)c2ccc(C(=O)N[C@@]3(C(=O)Nc4ccc(/C=C/C(=O)O)cc4)CCNC3)cc21 and state which class it falls under.
bin 1

Entry Cn1c(-c2ccccn2)c(C2CCCCC2)c2ccc(C(=O)NC(C)(C)C(=O)Nc3ccc(NC(=O)C(N)=O)cc3)cc21 belongs to which category?
bin 3

State the class of the compound shown: Cc1c(C(=O)O)sc2ccc(NC(=O)C3(NC(=O)c4ccc5c(C6CCCCC6)c(-c6ccccn6)n(C)c5c4)CCN(C)CC3)cc12
bin 2

Class (by measured Papp A→B) for Cn1c(-c2ccccn2)c(C2CCCCC2)c2ccc(C(=O)NC(C)(C)C(=O)Nc3ccc(-c4ccc(C(=O)O)o4)cc3)cc21
bin 1

Which Papp A→B category applies to Cn1c(-c2ccccn2)c(C2CCCCC2)c2ccc(C(=O)NC(C)(C)C(=O)Nc3ccc(CCC(=O)O)cc3)cc21 here?
bin 3

Category of Cn1c(-c2ccccn2)c(C2CCCCC2)c2ccc(C(=O)NC3(C(=O)Nc4ccc(/C=C/C(=O)O)cc4)CCOCC3)cc21 :
bin 2

Looking at Cn1c(-c2ccccn2)c(C2CCCCC2)c2ccc(C(=O)NC3(C(=O)Nc4ccc(/C=C/C(=O)O)cc4)CCC3)cc21 , which class would you pick?
bin 3

====

Experiment: Inhibition of HCV 1b NS5B RNA dependent RNA polymerase by scintillation proximity assay
Parameters: species or system Hepacivirus hominis
I'd appreciate it if you marked entries label 1 when IC50 is lower than 60 nM and label 0 when it is not.

Input CN1CCCC(NC(=O)c2ccc3c(C4CCCCC4)c(-c4ccccn4)n(C)c3c2)(C(=O)Nc2ccc(/C=C/C(=O)O)cc2)C1 (racemic) ; condition: IC50 strictly below 60 nM. Does it hold?
label 1

Input Cn1c(C(=O)O)cc2cc(NC(=O)[C@]3(NC(=O)c4ccc5c(C6CCCCC6)c(-c6ccccn6)n(C)c5c4)CCCNC3)ccc21 ; condition: IC50 strictly below 60 nM. Does it hold?
label 1

Does this compound meet the criterion IC50 < 60 nM? Cc1c(C(=O)O)sc2ccc(NC(=O)C3(NC(=O)c4ccc5c(C6CCCCC6)c(-c6ccccn6)n(C)c5c4)CCC3)cc12
label 0

Given the entry CN1CCC(NC(=O)c2ccc3c(C4CCCCC4)c(-c4ccccn4)n(C)c3c2)(C(=O)Nc2ccc(/C=C/C(=O)O)cc2)CC1 , would its reported IC50 be below 60 nM?
label 1

# TODO verify IC50 < 60 nM strictly for this compound: Cn1c(-c2ccccn2)c(C2CCCCC2)c2ccc(C(=O)N[C@]3(C(=O)Nc4ccc(/C=C/C(=O)O)cc4)CCNC3)cc21
label 1

Item Cn1c(-c2ccccn2)c(C2CCCCC2)c2ccc(C(=O)N[C@@]3(C(=O)Nc4ccc(-c5cncnc5)cc4)CCNC3)cc21 : IC50 beneath 60 nM, strictly?
label 0

IC50 strictly < 60 nM for this compound? CN1CC[C@@](NC(=O)c2ccc3c(C4CCCCC4)c(-c4ccccn4)n(C)c3c2)(C(=O)Nc2ccc(/C=C/C(=O)O)cc2)C1
label 1

Is 60 nM strictly greater than the compound's reported IC50? compound: Cc1c(C(=O)O)sc2ccc(NC(=O)C3(NC(=O)c4ccc5c(C6CCCCC6)c(-c6ccccn6)n(C)c5c4)CCN(C)CC3)cc12
label 1

Please state whether IC50 is below 60 nM for Cn1c(-c2ccccn2)c(C2CCCCC2)c2ccc(C(=O)NC(C)(C)C(=O)Nc3ccc(-c4ccc(C(=O)O)o4)cc3)cc21
label 0

Hi there! Is IC50 for Cn1c(-c2ccccn2)c(C2CCCCC2)c2ccc(C(=O)NC(C)(C)C(=O)Nc3ccc(-c4nc(C(=O)O)cs4)cc3)cc21 below 60 nM, do you know?
label 0

Just wondering, is IC50 of CCN1CC[C@@](NC(=O)c2ccc3c(C4CCCCC4)c(-c4ccccn4)n(C)c3c2)(C(=O)Nc2ccc(/C=C/C(=O)O)cc2)C1 below 60 nM?
label 1

Is the reported IC50 for Cc1c(C(N)=O)sc2ccc(NC(=O)C3(NC(=O)c4ccc5c(C6CCCCC6)c(-c6ccccn6)n(C)c5c4)CCC3)cc12 strictly below 60 nM?
label 0

====

Assay: physchem
Settings: phosphate buffer, pH 7.2
Could you label it Satisfied if measured solubility thermodynamic at 24 h is 20 µg/mL or higher, and Not satisfied otherwise?

Is the recorded value of solubility thermodynamic at 24 h equal to or greater than 20 µg/mL for this molecule? CN1CCC(NC(=O)c2ccc3c(C4CCCCC4)c(-c4ccccn4)n(C)c3c2)(C(=O)Nc2ccc(/C=C/C(=O)O)cc2)CC1
Satisfied

Given the entry Cn1c(-c2ccccn2)c(C2CCCCC2)c2ccc(C(=O)NC3(C(=O)Nc4ccc(C(=O)O)cc4)CCC3)cc21 , answer whether its solubility thermodynamic at 24 h meets or surpasses 20 µg/mL.
Satisfied

In plain terms: is recorded solubility thermodynamic at 24 h at least 20 µg/mL for Cn1c(-c2ccccn2)c(C2CCCCC2)c2ccc(C(=O)NC(C)(C)C(=O)Nc3ccc(NC(=O)C(N)=O)cc3)cc21 ?
Not satisfied

Hi, just wondering whether Cn1c(C(=O)O)cc2cc(NC(=O)[C@]3(NC(=O)c4ccc5c(C6CCCCC6)c(-c6ccccn6)n(C)c5c4)CCCNC3)ccc21 shows solubility thermodynamic at 24 h of 20 µg/mL or higher.
Not satisfied

Threshold query (solubility thermodynamic at 24 h >= 20 µg/mL) on Cn1c(-c2ccccn2)c(C2CCCCC2)c2ccc(C(=O)NC3(C(=O)Nc4ccc(/C=C/C(=O)O)cc4)CCCCC3)cc21
Not satisfied

Reported solubility thermodynamic at 24 h at or above 20 µg/mL? Cn1c(-c2ccccn2)c(C2CCCCC2)c2ccc(C(=O)NC3(C(=O)Nc4ccc(-c5cnc(N)nc5)cc4)CCC3)cc21
Not satisfied

Test whether the molecule Cn1c(-c2ccccn2)c(C2CCCCC2)c2ccc(C(=O)NC3(C(=O)Nc4ccc(/C=C/C(=O)O)cc4)CCOCC3)cc21 records solubility thermodynamic at 24 h of 20 µg/mL or higher.
Not satisfied

In plain terms: is recorded solubility thermodynamic at 24 h at least 20 µg/mL for Cn1c(-c2ccccn2)c(C2CCCCC2)c2ccc(C(=O)NC(C)(C)C(=O)Nc3ccc(-c4ccc(C(=O)O)o4)cc3)cc21 ?
Satisfied

Has CC(=O)N1CCCC(NC(=O)c2ccc3c(C4CCCCC4)c(-c4ccccn4)n(C)c3c2)(C(=O)Nc2ccc(/C=C/C(=O)O)cc2)C1 (racemic) a recorded solubility thermodynamic at 24 h greater than or equal to 20 µg/mL?
Satisfied

Does Cc1c(C(=O)O)sc2ccc(NC(=O)C(C)(C)NC(=O)c3ccc4c(C5CCCCC5)c(-c5ccccn5)n(C)c4c3)cc12 have a reported solubility thermodynamic at 24 h of at least 20 µg/mL?
Satisfied

Evaluate Cn1c(-c2ccccn2)c(C2CCCCC2)c2ccc(C(=O)NC(C)(C)C(=O)Nc3ccc4sc(C(=O)O)cc4c3)cc21 : solubility thermodynamic at 24 h at minimum 20 µg/mL?
Satisfied

Is solubility thermodynamic at 24 h at least 20 µg/mL? Consider Cn1c(-c2ccccn2)c(C2CCCCC2)c2ccc(C(=O)N[C@]3(C(=O)Nc4ccc(/C=C/C(=O)O)cc4)CCNC3)cc21
Not satisfied

Say whether CN1CC[C@@](NC(=O)c2ccc3c(C4CCCCC4)c(-c4ccccn4)n(C)c3c2)(C(=O)Nc2ccc(/C=C/C(=O)O)cc2)C1 shows solubility thermodynamic at 24 h of 20 µg/mL or more.
Not satisfied

Would you say Cc1c(C(=O)O)sc2ccc(NC(=O)C3(NC(=O)c4ccc5c(C6CCCCC6)c(-c6ccccn6)n(C)c5c4)CCN(C)CC3)cc12 shows solubility thermodynamic at 24 h at minimum 20 µg/mL?
Not satisfied

Evaluate Cc1c(C(=O)O)sc2ccc(NC(=O)C3(NC(=O)c4ccc5c(C6CCCCC6)c(-c6ccccn6)n(C)c5c4)CCC3)cc12 : solubility thermodynamic at 24 h at minimum 20 µg/mL?
Satisfied

Does solubility thermodynamic at 24 h meet or surpass 20 µg/mL for Cn1c(-c2ccccn2)c(C2CCCCC2)c2ccc(C(=O)NC(C)(C)C(=O)Nc3ccc(-c4nc(C(=O)O)cs4)cc3)cc21 ?
Satisfied

Threshold query (solubility thermodynamic at 24 h >= 20 µg/mL) on Cn1c(-c2ccccn2)c(C2CCCCC2)c2ccc(C(=O)N[C@@]3(C(=O)Nc4ccc(/C=C/C(=O)O)cc4)CCNC3)cc21
Not satisfied

Exam item: decide whether the reported solubility thermodynamic at 24 h for Cn1c(C(N)=O)cc2cc(NC(=O)C(C)(C)NC(=O)c3ccc4c(C5CCCCC5)c(-c5ccccn5)n(C)c4c3)ccc21 is at least 20 µg/mL.
Not satisfied

API: above_or_equal(metric=solubility thermodynamic at 24 h, cutoff=20 µg/mL) for item Cn1c(-c2ccccn2)c(C2CCCCC2)c2ccc(C(=O)NC(C)(C)C(=O)Nc3ccc(CCC(=O)O)cc3)cc21
Satisfied
